The reported numbers originate from patent US7109193B2.

# Target Entity: human oxytocin receptor (Homo sapiens)
# Construct: host or cells: CHO cells (pcDNA3.1 vector)
# Sequence (P30559 whole entry): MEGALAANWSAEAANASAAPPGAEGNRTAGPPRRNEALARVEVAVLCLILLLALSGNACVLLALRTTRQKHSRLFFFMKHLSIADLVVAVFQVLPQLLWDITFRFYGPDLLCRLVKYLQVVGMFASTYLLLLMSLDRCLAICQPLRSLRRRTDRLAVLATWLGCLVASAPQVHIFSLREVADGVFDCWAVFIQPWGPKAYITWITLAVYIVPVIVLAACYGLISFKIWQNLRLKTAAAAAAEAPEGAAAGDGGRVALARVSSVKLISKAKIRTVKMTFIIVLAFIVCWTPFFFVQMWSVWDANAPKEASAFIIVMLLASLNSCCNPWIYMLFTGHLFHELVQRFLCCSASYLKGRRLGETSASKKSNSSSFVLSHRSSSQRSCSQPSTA
# Protocol Notes: Oxytocin binding in Chinese Hamster Ovary cell membranes expressing human oxytocin receptors
# Measurement Conditions: 100 nM, CHO cell membranes, [3H]oxytocin, values without parentheses, read-out: OT % inhibition @ 100% nM
# Procedure: Oxytocin Binding in Chinese Hamster Ovary Cell Membranes Expressing Human Oxytocin Receptors The trypsin is removed by aspiration and the cells dislodged by tapping. Cell Culture medium (e.g. 30 mL for 1:30 split) is immediately added and mixed well to inactivate trypsin. […] The filter paper is thoroughly dried (7–12 min. in a microwave oven) and impregnated with MeltiLex B/H melt-on scintillation wax sheets and the radioactivity counted in a betaplate scintillation counter. […]
Please go through the items and note down their inhibition at 0.1 µM.
Answers are plain numbers, in %.

>>> endpoint_value("COc1cc(C(=O)N2Cc3ccc(C(=O)N4CCC(N5CCCCC5)CC4)n3Cc3ccccc32)ccc1-c1ccccc1C [Example 116]")
84

Quick batch: inhibition at 0.1 µM for everything below.
1. COc1cccc(-c2ccc(C(=O)N3Cc4ccc(C(=O)NCCCn5ccnc5)n4Cc4ccccc43)cc2OC)c1 [Example 133]
2. COc1cc(-c2ccccc2C)c(Cl)cc1C(=O)N1Cc2ccc(C(=O)NCCC3CCCN3C)n2Cc2ccccc21 (stereo not shown) [Example 168]
3. COc1ccccc1-c1ccc(C(=O)N2Cc3ccc(C(=O)N(C)C4CCN(C)CC4)n3Cc3ccccc32)cc1 [Example 177]
4. Cc1cc(C(=O)N2Cc3ccc(C(=O)N4CCN(C(C)C)CC4)n3Cc3ccccc32)ccc1-c1ccccc1C(F)(F)F [Example 240]

1. 46
2. 52
3. 98
4. 62

Quick batch: inhibition at 0.1 µM for everything below.
1. COc1cc(C(=O)N2Cc3ccc(C(=O)NCCN4CCCCC4)n3Cc3ccccc32)ccc1-c1ccccc1C [Example 154]
2. COc1cc(-c2ccccc2C)c(Cl)cc1C(=O)N1Cc2ccc(C(=O)N3CCN(CCN4CCOCC4)CC3)n2Cc2ccccc21 [Example 217]

54
98
